Listed here are compounds together with their documented inhibition.
- assayed system: Genome polyprotein (Dengue virus type 2 (strain 16681-PDK53)) (UniProt P29991)
- Sequence (P29991 whole entry, looked up): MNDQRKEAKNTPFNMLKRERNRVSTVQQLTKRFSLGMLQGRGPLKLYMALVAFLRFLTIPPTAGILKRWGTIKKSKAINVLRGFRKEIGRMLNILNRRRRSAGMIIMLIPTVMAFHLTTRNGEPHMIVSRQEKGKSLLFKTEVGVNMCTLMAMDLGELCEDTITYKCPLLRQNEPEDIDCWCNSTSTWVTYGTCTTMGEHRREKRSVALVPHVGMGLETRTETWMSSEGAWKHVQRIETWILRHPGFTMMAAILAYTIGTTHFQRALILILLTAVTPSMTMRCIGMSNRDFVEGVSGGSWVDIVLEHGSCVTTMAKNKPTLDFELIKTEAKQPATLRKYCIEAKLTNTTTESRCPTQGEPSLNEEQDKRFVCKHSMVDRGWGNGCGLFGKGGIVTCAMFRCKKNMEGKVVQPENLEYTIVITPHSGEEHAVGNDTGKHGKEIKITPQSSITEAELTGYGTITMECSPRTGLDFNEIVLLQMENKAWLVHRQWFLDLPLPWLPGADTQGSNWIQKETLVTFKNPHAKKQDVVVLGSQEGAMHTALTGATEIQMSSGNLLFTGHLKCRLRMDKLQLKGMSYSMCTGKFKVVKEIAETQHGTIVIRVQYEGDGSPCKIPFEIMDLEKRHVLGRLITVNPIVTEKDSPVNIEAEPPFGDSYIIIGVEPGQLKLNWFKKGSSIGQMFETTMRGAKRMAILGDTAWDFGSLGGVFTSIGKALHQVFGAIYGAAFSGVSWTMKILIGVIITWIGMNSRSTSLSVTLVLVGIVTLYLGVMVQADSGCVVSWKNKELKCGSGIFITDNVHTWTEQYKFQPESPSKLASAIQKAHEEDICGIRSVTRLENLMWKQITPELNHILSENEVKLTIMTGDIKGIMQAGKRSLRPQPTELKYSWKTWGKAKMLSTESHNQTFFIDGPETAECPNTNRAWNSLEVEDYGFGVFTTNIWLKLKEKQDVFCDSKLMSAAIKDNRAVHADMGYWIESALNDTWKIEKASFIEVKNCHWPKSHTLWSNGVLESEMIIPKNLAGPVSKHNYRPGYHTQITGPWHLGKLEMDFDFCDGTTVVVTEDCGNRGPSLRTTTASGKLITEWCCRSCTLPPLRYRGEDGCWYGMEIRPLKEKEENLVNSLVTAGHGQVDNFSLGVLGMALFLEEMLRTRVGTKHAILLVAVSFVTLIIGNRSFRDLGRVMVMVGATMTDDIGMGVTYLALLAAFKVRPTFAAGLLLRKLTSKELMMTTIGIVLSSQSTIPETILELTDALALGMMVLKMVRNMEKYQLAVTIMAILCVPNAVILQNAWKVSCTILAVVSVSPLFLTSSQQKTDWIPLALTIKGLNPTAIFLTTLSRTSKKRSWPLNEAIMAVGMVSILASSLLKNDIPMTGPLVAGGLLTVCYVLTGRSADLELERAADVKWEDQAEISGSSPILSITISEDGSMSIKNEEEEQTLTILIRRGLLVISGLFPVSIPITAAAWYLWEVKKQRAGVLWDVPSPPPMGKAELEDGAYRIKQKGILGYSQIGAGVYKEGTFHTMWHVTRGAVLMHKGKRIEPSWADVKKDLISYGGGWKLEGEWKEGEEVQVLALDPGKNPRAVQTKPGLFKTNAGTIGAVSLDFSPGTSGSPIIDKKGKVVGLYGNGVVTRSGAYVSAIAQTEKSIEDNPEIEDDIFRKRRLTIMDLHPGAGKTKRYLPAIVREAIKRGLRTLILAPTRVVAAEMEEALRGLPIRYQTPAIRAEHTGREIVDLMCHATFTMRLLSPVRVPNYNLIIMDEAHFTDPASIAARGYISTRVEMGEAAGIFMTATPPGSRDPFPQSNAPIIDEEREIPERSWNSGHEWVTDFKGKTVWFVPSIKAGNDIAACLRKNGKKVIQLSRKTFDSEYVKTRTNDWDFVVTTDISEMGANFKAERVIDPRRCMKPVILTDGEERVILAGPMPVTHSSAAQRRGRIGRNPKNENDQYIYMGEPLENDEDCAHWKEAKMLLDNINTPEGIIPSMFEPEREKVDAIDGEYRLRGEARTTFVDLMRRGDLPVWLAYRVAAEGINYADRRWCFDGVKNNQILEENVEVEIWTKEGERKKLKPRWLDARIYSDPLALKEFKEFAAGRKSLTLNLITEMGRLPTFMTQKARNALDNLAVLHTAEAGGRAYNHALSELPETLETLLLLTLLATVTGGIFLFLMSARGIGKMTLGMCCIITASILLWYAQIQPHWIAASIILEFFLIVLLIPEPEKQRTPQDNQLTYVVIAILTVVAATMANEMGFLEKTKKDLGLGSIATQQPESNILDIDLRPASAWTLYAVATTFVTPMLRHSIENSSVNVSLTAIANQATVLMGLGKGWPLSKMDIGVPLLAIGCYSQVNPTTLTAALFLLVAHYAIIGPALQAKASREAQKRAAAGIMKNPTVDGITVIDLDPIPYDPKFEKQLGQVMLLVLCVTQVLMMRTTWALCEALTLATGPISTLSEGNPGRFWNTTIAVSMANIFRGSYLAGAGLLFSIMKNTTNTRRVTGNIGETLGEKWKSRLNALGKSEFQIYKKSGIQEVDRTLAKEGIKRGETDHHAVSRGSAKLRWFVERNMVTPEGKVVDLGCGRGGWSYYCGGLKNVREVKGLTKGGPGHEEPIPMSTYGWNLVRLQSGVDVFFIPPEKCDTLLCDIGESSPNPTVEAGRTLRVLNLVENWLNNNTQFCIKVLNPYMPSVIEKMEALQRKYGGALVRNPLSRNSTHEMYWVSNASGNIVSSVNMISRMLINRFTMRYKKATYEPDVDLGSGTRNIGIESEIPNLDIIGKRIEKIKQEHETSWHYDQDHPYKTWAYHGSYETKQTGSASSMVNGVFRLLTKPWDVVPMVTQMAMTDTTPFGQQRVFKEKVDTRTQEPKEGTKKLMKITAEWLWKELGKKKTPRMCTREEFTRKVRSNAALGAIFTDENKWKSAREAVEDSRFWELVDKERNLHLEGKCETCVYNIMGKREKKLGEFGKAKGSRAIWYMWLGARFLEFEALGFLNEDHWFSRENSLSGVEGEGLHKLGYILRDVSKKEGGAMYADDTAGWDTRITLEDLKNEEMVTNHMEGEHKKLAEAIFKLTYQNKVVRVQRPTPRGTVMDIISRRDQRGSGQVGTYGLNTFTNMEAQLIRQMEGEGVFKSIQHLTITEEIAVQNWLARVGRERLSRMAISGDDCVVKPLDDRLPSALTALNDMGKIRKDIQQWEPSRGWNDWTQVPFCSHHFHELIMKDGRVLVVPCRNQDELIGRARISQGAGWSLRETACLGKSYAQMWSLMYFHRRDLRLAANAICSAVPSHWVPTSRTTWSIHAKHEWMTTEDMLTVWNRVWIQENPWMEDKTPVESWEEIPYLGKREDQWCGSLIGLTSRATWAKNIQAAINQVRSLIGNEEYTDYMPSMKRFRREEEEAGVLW
- procedure summary: flavivirus cap methylation enzyme inhibition – biochemical, confirmation dose response, primary screen (AID 588689)
- condition: Dengue-2 NS5 methyltransferase capping enzyme assay, at 25 µM, active compounds read high
Hit rate of the full screen: of about 340,000 compounds, about 1,000 (0.29%) were called active. These entries were drawn from the full list. Measured potencies and affinities stand elsewhere.
Provide only the numeric value, understood in %.

compound: Cc1ccc(NC(=C(C#N)C#N)c2ccccc2)cc1
unit of measure: %
inhibition: 6.86
--
compound: Cc1nc2cc(N3CCCCC3)c(NC(=O)c3cccnc3)cc2c(=O)n1Cc1ccccc1
unit of measure: %
inhibition: -0.81
--
compound: COc1ccc(N(CC(=O)NCCSCc2ccco2)S(=O)(=O)c2ccccc2)cc1
unit of measure: %
inhibition: -3.68
--
compound: Cc1ncsc1CCOC(=O)C12CC3CC(CC(C3)C1)C2
unit of measure: %
inhibition: -12.1
--
compound: COc1ccc(S(=O)(=O)NNC(=O)c2cccs2)cc1
unit of measure: %
inhibition: -2.33

So for `COc1cccc(/C=N/N2CCOCC2)c1O` , the logged inhibition turned out to be -2.67

So for `COc1ccc(O)c(/C=N/N2CCOCC2)c1` , the logged inhibition turned out to be -4.77

So for `C[C@@H]1CN(C(=O)c2cc(COc3cccc(C(F)(F)F)c3)on2)C[C@H](C)O1` , the logged inhibition turned out to be -9.08

So for CC1(C)C2CCC1(CS(=O)(=O)NCc1ccc(C(F)(F)F)cc1)C(=O)C2 (configuration not stated) , the logged inhibition turned out to be -2.61

So for CCOc1ccc(NC(=O)N2CCCC2C(=O)NCC2CCCO2)cc1 (configuration not stated) , the logged inhibition turned out to be -7.19

So for `NC(=S)N=Nc1c(O)[nH]c2ccccc12` , the logged inhibition turned out to be -8.45

So for `CSC(=CC(=O)c1ccccc1)SC` , the logged inhibition turned out to be -2.05

###

Listed here are compounds together with their documented inhibition.
- assayed system: Genome polyprotein (Dengue virus type 2 (strain 16681-PDK53)) (UniProt P29991)
- procedure summary: flavivirus cap methylation enzyme inhibition – biochemical, confirmation dose response, primary screen (AID 588689)
- condition: Dengue-2 NS5 methyltransferase capping enzyme assay, at 25 µM, active compounds read high
In all, about 340,000 compounds went through this assay and about 1,000 (0.29%) were called active. These entries were drawn from the full list. Measured potencies and affinities stand elsewhere.
Provide only the numeric value, understood in %.

compound: COc1ccc(NC(=O)/C=C/c2ccccc2)c([N+](=O)[O-])c1
assayed system: Genome polyprotein (Dengue virus type 2 (strain 16681-PDK53)) (UniProt P29991)
result: -2.2
//
compound: Cc1onc(-c2ccccc2)c1C(=O)Nc1ccc(Cl)cn1
assayed system: Genome polyprotein (Dengue virus type 2 (strain 16681-PDK53)) (UniProt P29991)
result: -2.24
//
compound: C/C(=C\COc1cc(=O)[nH]c2ccccc12)CCC(O)C(C)(C)O (stereo unspecified)
assayed system: Genome polyprotein (Dengue virus type 2 (strain 16681-PDK53)) (UniProt P29991)
result: -11.2
//
compound: C=C(C)c1cccc(C(C)(C)NC(=O)N2CCCC(C)C2)c1 (stereo unspecified)
assayed system: Genome polyprotein (Dengue virus type 2 (strain 16681-PDK53)) (UniProt P29991)
result: -4.84
//
compound: COc1ccc(-c2csc(NC(=O)CSc3n[nH]c(C)n3)n2)cc1
assayed system: Genome polyprotein (Dengue virus type 2 (strain 16681-PDK53)) (UniProt P29991)
result: -3.23
//
compound: O=C(CN(Cc1ccccc1Cl)C(=O)c1csnn1)NCc1ccc2c(c1)OCO2
assayed system: Genome polyprotein (Dengue virus type 2 (strain 16681-PDK53)) (UniProt P29991)
result: -1.47
//
compound: CC(=O)c1c(C)[nH]c(C(=O)OCC(=O)N2CCc3ccccc32)c1C
assayed system: Genome polyprotein (Dengue virus type 2 (strain 16681-PDK53)) (UniProt P29991)
result: -4.77
//
compound: Cc1ccc(C)c2[nH]c(=O)c(CCNS(=O)(=O)c3ccccc3)cc12
assayed system: Genome polyprotein (Dengue virus type 2 (strain 16681-PDK53)) (UniProt P29991)
result: -0.7
//
compound: COc1ccc(CCC(=O)N2CCN(C3CCCCC3)CC2)cc1
assayed system: Genome polyprotein (Dengue virus type 2 (strain 16681-PDK53)) (UniProt P29991)
result: -7.21
//
compound: Cc1ccc(-n2nc(CN3CCOCC3)c(-c3ccccc3)c2N)cc1Cl
assayed system: Genome polyprotein (Dengue virus type 2 (strain 16681-PDK53)) (UniProt P29991)
result: -2.18

Proceed to the following item.
So for `COc1ccc(-c2csc(NC(=O)CSc3nc(C)cs3)n2)cc1` , the logged inhibition turned out to be -6.77
